Molecular target: Ribosomal protein S6 kinase alpha-5 (Homo sapiens)
Sequence (O75582 whole entry): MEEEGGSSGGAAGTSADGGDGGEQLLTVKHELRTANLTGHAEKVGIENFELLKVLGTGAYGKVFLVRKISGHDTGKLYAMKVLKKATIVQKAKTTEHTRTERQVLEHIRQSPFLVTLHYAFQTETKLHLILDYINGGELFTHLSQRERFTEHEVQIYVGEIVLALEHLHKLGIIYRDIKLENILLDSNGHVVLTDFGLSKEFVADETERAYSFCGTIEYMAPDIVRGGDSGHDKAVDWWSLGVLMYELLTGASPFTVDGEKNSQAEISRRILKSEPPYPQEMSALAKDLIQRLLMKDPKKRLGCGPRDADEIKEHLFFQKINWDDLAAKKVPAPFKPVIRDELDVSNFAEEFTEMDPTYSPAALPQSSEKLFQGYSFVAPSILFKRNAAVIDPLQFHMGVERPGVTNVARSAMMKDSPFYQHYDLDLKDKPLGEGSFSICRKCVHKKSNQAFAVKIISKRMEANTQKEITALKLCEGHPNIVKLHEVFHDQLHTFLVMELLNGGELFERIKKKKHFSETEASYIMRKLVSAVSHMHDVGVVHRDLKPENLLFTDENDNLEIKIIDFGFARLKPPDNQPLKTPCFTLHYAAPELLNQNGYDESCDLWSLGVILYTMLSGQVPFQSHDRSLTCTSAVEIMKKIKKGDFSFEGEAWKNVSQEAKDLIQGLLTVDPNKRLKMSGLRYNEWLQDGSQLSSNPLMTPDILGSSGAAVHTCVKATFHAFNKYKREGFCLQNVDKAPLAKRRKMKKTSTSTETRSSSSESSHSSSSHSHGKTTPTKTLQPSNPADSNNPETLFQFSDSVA
experimentalEndpoint: pIC50
Here pIC50 is given on a logarithmic scale as minus log10 of the concentration in mol/L.

input: Which pIC50 is listed for CCn1c(-c2nonc2N)nc2cnc(Oc3cccc(NC(=O)c4ccc(OCCN5CCOCC5)cc4)c3)cc21 [GSK-269962A] ?
output: 7.31

====

Biological target: Serine/threonine-protein kinase PLK1 (Homo sapiens)
Sequence (P53350 whole entry): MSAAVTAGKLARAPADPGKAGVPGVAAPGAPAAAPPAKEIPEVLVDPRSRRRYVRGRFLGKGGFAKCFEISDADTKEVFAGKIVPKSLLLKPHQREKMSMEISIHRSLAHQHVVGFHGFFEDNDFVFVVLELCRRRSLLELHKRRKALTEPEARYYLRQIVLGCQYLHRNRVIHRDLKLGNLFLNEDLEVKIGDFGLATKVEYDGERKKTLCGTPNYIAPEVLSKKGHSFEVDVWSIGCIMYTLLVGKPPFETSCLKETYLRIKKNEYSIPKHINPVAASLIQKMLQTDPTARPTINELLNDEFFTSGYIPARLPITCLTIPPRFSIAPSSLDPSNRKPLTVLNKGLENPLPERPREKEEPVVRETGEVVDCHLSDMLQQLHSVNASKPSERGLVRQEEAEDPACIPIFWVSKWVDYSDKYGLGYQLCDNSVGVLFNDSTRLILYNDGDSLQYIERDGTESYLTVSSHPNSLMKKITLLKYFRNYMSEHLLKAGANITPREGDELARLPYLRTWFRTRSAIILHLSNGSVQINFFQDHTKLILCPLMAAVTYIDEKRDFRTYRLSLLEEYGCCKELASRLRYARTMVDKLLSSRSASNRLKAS
experimentalEndpoint: IC50

input: // returns reported IC50 for input CCn1c(-c2nonc2N)nc2cnc(Oc3cccc(NC(=O)c4ccc(OCCN5CCOCC5)cc4)c3)cc21 [GSK-269962A]
output: > 10 µM
